Test: Compound cytotoxicity, XTT-based colorimetric assay
Type: cell-based
Details: human; uninfected MT2 cells, day 4, XTT; read-out: CC50
measurement_type: CC50 at 4 days

Fill in reported CC50 at 4 days for this entry: COCCCn1nc(NS(C)(=O)=O)c2c(Cl)ccc(-n3c([C@H](Cc4cc(F)cc(F)c4)NC(=O)Cn4nc(C(F)F)c5c4C(F)(F)[C@@H]4C[C@H]54)nc4nc(C5CCC(F)(F)CC5)cc(NCCC5CCCCC5)c4c3=O)c21 (atropisomer, axis not shown; (P))
> 20 nM

---

Assay: Compound cytotoxicity, XTT-based colorimetric assay
Assay type: cell-based
Settings: human; uninfected MT2 cells, day 4, XTT; read-out: CC50
Procedure: Compound cytotoxicity and the corresponding CC50 values were determined using the same protocol as described in the antiviral assay except that uninfected cells were used. Cytotoxicity was assessed on day 4 in uninfected MT2 cells by using an XTT (2,3-bis[2-Methoxy-4-nitro-5-sulfophenyl]-2H-tetrazolium-5-carboxyanilide inner salt)-based colorimetric assay (Sigma-Aldrich, St Louis, Mo).
measurement_type: CC50 at 4 days

// known answers, use as guide
[
  {
    "compound": "CS(=O)(=O)Nc1nn(CCN2CCC(F)(F)CC2)c2c(-n3c([C@H](Cc4cc(F)cc(F)c4)NC(=O)Cn4nc(C(F)F)c5c4C(F)(F)[C@@H]4C[C@H]54)nc4nc(C5CCC(F)(F)CC5)cc(CO)c4c3=O)ccc(Cl)c12 (atropisomer, axis not shown; (P)) [Example 675]",
    "CC50 at 4 days": "> 0.02 µM"
  },
  {
    "compound": "CS(=O)(=O)Nc1nn(CCN2CCC(F)CC2)c2c(-n3c([C@H](Cc4cc(F)cc(F)c4)NC(=O)Cn4nc(C(F)F)c5c4C(F)(F)[C@@H]4C[C@H]54)nc4nc(C5CCC(F)(F)CC5)cc(C(F)F)c4c3=O)ccc(Cl)c12 (atropisomer, axis not shown; (P)) [Example 370]",
    "CC50 at 4 days": "> 0.02 µM"
  }
]

For Cc1cc(C2CCC(F)(F)CC2)nc2nc([C@H](Cc3cc(F)cc(F)c3)NC(=O)Cn3nc(C4CC4)c4c3C[C@@H]3C[C@H]43)n(-c3ccc(Cl)c4c(NS(C)(=O)=O)nn(CCN5CCO[C@@H](C(C)C)C5)c34)c(=O)c12 (atropisomer, axis not shown; (P)) [Example 456] , write its CC50 at 4 days.
> 0.02 µM
